- Test system: Escherichia coli TOP10
- ASSAY_PROTOCOL: shrunken log2 fold change of peptide-encoding DNA abundance (4.5 h post-induction vs induction); higher = less antimicrobial activity (less host growth inhibition)
- TEST_PARAMETERS: time post-induction: 4.5 h; library: site-saturation at positions 5, 18, 19, 20
REPORTED_PROPERTY: shrunken log2 fold change
I'd appreciate a reply containing only the number, no unit.

These solved cases illustrate the format of a correct answer.
RRIRVRPPRLPRPRPRPWFHPRP : -0.711
RRIRHRPPRLPRPRPRPNDNPRP : -1.03
RRIRLRPPRLPRPRPRPMEPPRP : 0.101
RRIRERPPRLPRPRPRPMHCPRP : -0.0195

Q: Can you share its shrunken log2 fold change? I mean this sequence: "RRIRHRPPRLPRPRPRPNRIPRP"
Ans: -0.46

Q: I'd like to know its shrunken log2 fold change. The sequence in question is "RRIRPRPPRLPRPRPRPASTPRP"
Ans: 0.11

Q: Given the entry "RRIRNRPPRLPRPRPRPVVDPRP" , report its measured shrunken log2 fold change.
Ans: -0.274

Q: I am curious: what shrunken log2 fold change value has been reported for "RRIRWRPPRLPRPRPRPGPTPRP" ?
Ans: 0.487

Q: What value of shrunken log2 fold change has been reported for the following sequence? "RRIRSRPPRLPRPRPRPKADPRP"
Ans: 0.572

Q: Param item = "RRIRIRPPRLPRPRPRPMQRPRP" ; retrieve measured shrunken log2 fold change.
Ans: -0.129

* * *

- Tested on: Escherichia coli TOP10
- ASSAY_PROTOCOL: shrunken log2 fold change of peptide-encoding DNA abundance (4.5 h post-induction vs induction); higher = less antimicrobial activity (less host growth inhibition)
- TEST_PARAMETERS: time post-induction: 4.5 h; library: site-saturation at positions 5, 18, 19, 20
REPORTED_PROPERTY: shrunken log2 fold change
Answer with the value's number alone.

RRIRWRPPRLPRPRPRPIFTPRP : -0.173
RRIRPRPPRLPRPRPRPPKYPRP : -0.148

Q: For the sequence shown here, "RRIRQRPPRLPRPRPRPDYYPRP" , give the reported shrunken log2 fold change.
Ans: -0.0251

Q: So what's the measured shrunken log2 fold change for this one? "RRIRIRPPRLPRPRPRPRAPPRP"
Ans: 0.347

* * *

List of shrunken log2 fold change values.
- Test system: Escherichia coli TOP10
- ASSAY_PROTOCOL: shrunken log2 fold change of peptide-encoding DNA abundance (4.5 h post-induction vs induction); higher = less antimicrobial activity (less host growth inhibition)
- TEST_PARAMETERS: time post-induction: 4.5 h; library: site-saturation at positions 5, 18, 19, 20

RRIRLRPPRLPRPRPRPMLTPRP : 0.0606
RRIRQRPPRLPRPRPRPKYFPRP : 0.0276
RRIRSRPPRLPRPRPRPNMVPRP : -0.0658
RRIRQRPPRLPRPRPRPNLNPRP : -0.221
RRIRPRPPRLPRPRPRPDTFPRP : -0.0596

Q: Record request: shrunken log2 fold change value, item "RRIRLRPPRLPRPRPRPLSLPRP"
Ans: -0.145

Q: Endpoint output: shrunken log2 fold change of "RRIRTRPPRLPRPRPRPFFLPRP" . Value?
Ans: -0.299

Q: Please give the measured shrunken log2 fold change for this sequence: "RRIRLRPPRLPRPRPRPIFNPRP"
Ans: -0.221

Q: What value of shrunken log2 fold change has been recorded for this entry: "RRIRERPPRLPRPRPRPHQNPRP"
Ans: 0.0506

* * *

- System: Escherichia coli TOP10
- ASSAY_PROTOCOL: shrunken log2 fold change of peptide-encoding DNA abundance (4.5 h post-induction vs induction); higher = less antimicrobial activity (less host growth inhibition)
- TEST_PARAMETERS: time post-induction: 4.5 h; library: site-saturation at positions 5, 18, 19, 20
REPORTED_PROPERTY: shrunken log2 fold change

Here are 2 sequences together with their reported answers.
RRIRCRPPRLPRPRPRPTLSPRP : -0.0995
RRIRWRPPRLPRPRPRPEQIPRP : 0.199

Lab note: next sequence to report on.
Q: Which shrunken log2 fold change value belongs to "RRIRARPPRLPRPRPRPFMIPRP" ?
Ans: -0.1

* * *

- Test system: Escherichia coli TOP10
- ASSAY_PROTOCOL: shrunken log2 fold change of peptide-encoding DNA abundance (4.5 h post-induction vs induction); higher = less antimicrobial activity (less host growth inhibition)
- TEST_PARAMETERS: time post-induction: 4.5 h; library: site-saturation at positions 5, 18, 19, 20
Bucketed by reported shrunken log2 fold change, buckets being low: < -0.1; moderate: ≥ -0.1 and < -0.02; high: ≥ -0.02

Solved cases (2 shown):
RRIRARPPRLPRPRPRPEWIPRP : high
RRIRARPPRLPRPRPRPDFTPRP : moderate

Q: Field: class (shrunken log2 fold change) — entry: "RRIRARPPRLPRPRPRPEQCPRP"
Ans: high

Q: Consider "RRIRFRPPRLPRPRPRPDGKPRP" . To which shrunken log2 fold change class does it belong?
Ans: low

Q: Textbook exercise: identify the category of the sequence given here, "RRIRCRPPRLPRPRPRPGITPRP" , according to its measured value.
Ans: low

Q: Note: place this sequence into its band. Item: "RRIRERPPRLPRPRPRPCAEPRP"
Ans: moderate

Q: Note: place this sequence into its band. Item: "RRIRNRPPRLPRPRPRPHGRPRP"
Ans: high

Q: Hey, which category is "RRIRTRPPRLPRPRPRPDMWPRP" in, do you know?
Ans: low

Q: Class? Entry: "RRIRPRPPRLPRPRPRPVQVPRP"
Ans: low

Q: Record "RRIRLRPPRLPRPRPRPEEGPRP" — which class?
Ans: low

Q: Input "RRIRWRPPRLPRPRPRPNQKPRP" ; output its category
Ans: moderate

* * *

Reported shrunken log2 fold change values for a set of sequences
- Test system: Escherichia coli TOP10
- ASSAY_PROTOCOL: shrunken log2 fold change of peptide-encoding DNA abundance (4.5 h post-induction vs induction); higher = less antimicrobial activity (less host growth inhibition)
- TEST_PARAMETERS: time post-induction: 4.5 h; library: site-saturation at positions 5, 18, 19, 20
When you answer, write just the number.

Solved entries (count: 6):
RRIRWRPPRLPRPRPRPSNDPRP : 0.391
RRIRGRPPRLPRPRPRPIVDPRP : 0.0357
RRIRARPPRLPRPRPRPENVPRP : 0.251
RRIRRRPPRLPRPRPRPHHMPRP : -0.217
RRIRKRPPRLPRPRPRPSGAPRP : 0.539
RRIRGRPPRLPRPRPRPDCVPRP : 1.39

Q: What value of shrunken log2 fold change has been reported for the following sequence? "RRIRHRPPRLPRPRPRPQLWPRP"
Ans: 0.0534

Q: Looking for the measured shrunken log2 fold change of "RRIRCRPPRLPRPRPRPMPKPRP" , can you help?
Ans: 0.0972

Q: Recorded shrunken log2 fold change for "RRIRPRPPRLPRPRPRPSYRPRP" , please?
Ans: -0.342

* * *

- Tested on: Escherichia coli TOP10;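 also: peptides expressed intracellularly from a pBAD plasmid library in pooled LB shake-flask culture, induced with 0.3% L-arabinose, DNA abundance read by NGS, three biological replicates, DESeq2 with apeglm shrinkage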
- ASSAY_PROTOCOL: shrunken log2 fold change of peptide-encoding DNA abundance (4.5 h post-induction vs induction); higher = less antimicrobial activity (less host growth inhibition)
- TEST_PARAMETERS: time post-induction: 4.5 h; library: site-saturation at positions 5, 18, 19, 20
Decide using shrunken log2 fold change: a value greater than or equal to -0.03 is yes (1), a smaller one is no (0).

Below, 4 sequences whose answers are already recorded.
RRIRTRPPRLPRPRPRPLVEPRP : no (0)
RRIRCRPPRLPRPRPRPFMYPRP : no (0)
RRIRQRPPRLPRPRPRPLHQPRP : no (0)
RRIRARPPRLPRPRPRPIRWPRP : yes (1)

Q: Is it the case that "RRIRARPPRLPRPRPRPMMPPRP" has shrunken log2 fold change reaching or exceeding -0.03?
Ans: yes (1)

Q: Decide: is the reported value of shrunken log2 fold change for "RRIRTRPPRLPRPRPRPMDNPRP" equal to or greater than -0.03?
Ans: no (0)

Q: Hi team, for "RRIRHRPPRLPRPRPRPEWFPRP" , is the recorded shrunken log2 fold change at or above -0.03?
Ans: no (0)

Q: Answer whether shrunken log2 fold change of "RRIRTRPPRLPRPRPRPDDGPRP" is greater than or equal to -0.03.
Ans: yes (1)

Q: Would you say "RRIRFRPPRLPRPRPRPFTRPRP" shows shrunken log2 fold change at minimum -0.03?
Ans: yes (1)

Q: Answer whether shrunken log2 fold change of "RRIRWRPPRLPRPRPRPENLPRP" is greater than or equal to -0.03.
Ans: yes (1)

Q: Entry "RRIRSRPPRLPRPRPRPIDHPRP" : is its shrunken log2 fold change no less than -0.03?
Ans: no (0)

Q: In plain terms: is recorded shrunken log2 fold change at least -0.03 for "RRIRDRPPRLPRPRPRPRDDPRP" ?
Ans: yes (1)

Q: Confirm if shrunken log2 fold change reported for the sequence "RRIRTRPPRLPRPRPRPGSWPRP" is -0.03 or above.
Ans: yes (1)

Q: Reported shrunken log2 fold change at or above -0.03? "RRIRSRPPRLPRPRPRPRQAPRP"
Ans: yes (1)

Q: Decide: is the reported value of shrunken log2 fold change for "RRIRTRPPRLPRPRPRPFMIPRP" equal to or greater than -0.03?
Ans: yes (1)

Q: # bool: shrunken log2 fold change of "RRIRGRPPRLPRPRPRPYELPRP" >= -0.03
Ans: no (0)

Q: Can "RRIRDRPPRLPRPRPRPNMIPRP" be said to have shrunken log2 fold change at or above -0.03?
Ans: no (0)

Q: Dear colleague, could you confirm whether "RRIRTRPPRLPRPRPRPMDGPRP" has shrunken log2 fold change at or above -0.03?
Ans: no (0)

Q: Can "RRIRKRPPRLPRPRPRPPRKPRP" be said to have shrunken log2 fold change at or above -0.03?
Ans: yes (1)
